Tested on: BxT
Assay: Effective concentration required for antiviral activity against BxT cell line of 174xCEM cells of Human by XTT assay
Format: functional, cell-based
EC50 reference

>  <Compound>
Cc1cn([C@H]2C[C@H](N=[N+]=[N-])[C@@H](CO)O2)c(=O)[nH]c1=O

>  <EC50>
0.055 µM

$$$$
>  <Compound>
CC(C)CCCC(C)[C@H]1CC[C@H]2[C@@H]3CCC4C[C@@H](CCC=C(c5cc(Cl)c(O)c(C(=O)O)c5)c5cc(Cl)c(O)c(C(=O)O)c5)CC[C@]4(C)[C@H]3CC[C@]12C (some centres not stated)

>  <EC50>
6.1 µM

$$$$
